Taken from patent US9783505B2.

# IC50 values compiled below
SYSTEM_UNDER_TEST: His-PKC-theta (Homo sapiens, UniProt Q04759)
Construct: His; purchased Invitrogen
Sequence (Q04759 whole entry): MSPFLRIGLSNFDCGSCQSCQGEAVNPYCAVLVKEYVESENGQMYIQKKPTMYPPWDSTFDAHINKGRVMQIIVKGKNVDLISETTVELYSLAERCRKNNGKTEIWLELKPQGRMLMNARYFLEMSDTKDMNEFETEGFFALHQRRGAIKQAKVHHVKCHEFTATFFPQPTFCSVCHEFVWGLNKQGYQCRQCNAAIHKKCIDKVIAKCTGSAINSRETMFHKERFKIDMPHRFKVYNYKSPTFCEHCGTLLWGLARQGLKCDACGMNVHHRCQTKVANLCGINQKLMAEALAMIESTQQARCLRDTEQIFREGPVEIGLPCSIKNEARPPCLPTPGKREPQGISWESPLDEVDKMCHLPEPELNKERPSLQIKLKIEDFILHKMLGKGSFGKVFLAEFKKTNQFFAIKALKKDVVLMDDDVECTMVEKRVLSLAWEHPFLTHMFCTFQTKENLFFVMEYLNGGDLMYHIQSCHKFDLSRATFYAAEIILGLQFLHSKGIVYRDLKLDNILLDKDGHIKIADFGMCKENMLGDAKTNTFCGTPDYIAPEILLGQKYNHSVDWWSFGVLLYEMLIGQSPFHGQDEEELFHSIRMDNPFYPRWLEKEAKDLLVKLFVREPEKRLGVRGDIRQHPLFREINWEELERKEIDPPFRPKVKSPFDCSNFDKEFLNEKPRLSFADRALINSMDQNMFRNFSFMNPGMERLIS
METHOD_SUMMARY: PKC-theta Assay (384-well time resolved fluorescence, IMAP TR-FRET)
Format: biochemical
CONDITION_DETAILS: Table 2; read-out: Act. Level (IC50 in the PKC-theta Assay)

Examples from the recorded data:
N#Cc1cnc(NCCc2cccc(Cl)c2)nc1N[C@H]1CC[C@@H](O)CC1 [Cmpd 68] | 100 to 800 nM
CC1(C)C[C@H](Nc2nc(NCCc3cc(Cl)ccc3C(F)(F)F)ncc2C#N)CC[C@@H]1O [Cmpd 183] | 100 to 800 nM
CC1(C)C[C@H](Nc2nc(NCCc3ccccc3C(F)(F)F)ncc2C#N)CC[C@@H]1O [Cmpd 97] | 100 to 800 nM
CC1(C)C[C@H](Nc2nc(NCCc3ccc(S(=O)(=O)N4CCOCC4)cc3)ncc2C#N)CC[C@@H]1O [Cmpd 177] | 100 to 800 nM
N#Cc1cnc(NCc2cc(F)ccc2C(F)(F)F)nc1N[C@H]1CC[C@@H](O)CC1 [Cmpd 3] | < 100 nM

Next molecule, IC50 to be filled in.
IN: Report IC50 for CC1(C)[C@@H](O)C[C@H]1Nc1nc(NCC(F)(F)c2ccccc2)ncc1C#N [Cmpd 43]
OUT: 100 to 800 nM

====

SYSTEM_UNDER_TEST: His-PKC-theta (Homo sapiens, UniProt Q04759)
Construct: His; purchased Invitrogen
METHOD_SUMMARY: PKC-theta Assay (384-well time resolved fluorescence, IMAP TR-FRET)
Assay type: biochemical
CONDITION_DETAILS: read-out: Act. Level (IC50 in the PKC-theta Assay)
Below, each of the compounds is paired with its reported IC50 value.

CC(F)(F)COc1ncncc1CNc1ncc(C#N)c(N[C@H]2CC[C@@H](O)CC2)n1 [Cmpd 153] | < 100 nM
N#Cc1cnc(NCc2cnccc2C(F)(F)F)nc1NC12CC3CC(CC(O)(C3)C1)C2 [Cmpd 124] | 800 to 2000 nM

As a next step, examine the compound that follows.
IN: Report measured IC50; entry is Cn1c(=O)n(CCNc2ncc(C#N)c(N[C@@H]3CC[C@H](O)C(C)(C)C3)n2)c2ccccc21 [Cmpd 291]
OUT: 2000 to 10000 nM

====

SYSTEM_UNDER_TEST: His-PKC-theta (Homo sapiens)
Construct: His; purchased Invitrogen
METHOD_SUMMARY: PKC-theta Assay (384-well time resolved fluorescence, IMAP TR-FRET)
Assay type: biochemical
CONDITION_DETAILS: Table 2; read-out: Act. Level (IC50 in the PKC-theta Assay)
pIC50: −log10 of the molar value.
EXPERIMENTAL_ENDPOINT: pIC50

Answered examples (3):
CC1(C)C[C@H](Nc2nc(NCC(=O)c3ccc(F)cc3F)ncc2C#N)CC[C@@H]1O [Cmpd 66] | 6.10 to 7.00
N#Cc1cnc(NCc2ccccc2C(F)(F)F)nc1N[C@H]1CC[C@@H](O)CC1 [Cmpd 8] | 6.10 to 7.00
CC1(C)C[C@H](Nc2nc(NCCc3ccc(S(N)(=O)=O)c(Cl)c3)ncc2C#N)CC[C@@H]1O [Cmpd 186] | > 7.00

IN: Read off the recorded pIC50 for CC1(C)[C@@H](O)C[C@H]1Nc1nc(NCCc2ccc(-n3cccn3)cc2)ncc1C#N [Cmpd 48]
OUT: > 7.00

IN: Output pIC50 of CC(O)(CNc1ncc(C#N)c(N[C@@H]2CC[C@H](O)C(C)(C)C2)n1)c1ccccc1 (stereo partly drawn) [Cmpd 56]
OUT: 5.70 to 6.10

IN: For the compound CC(C)(O)CNc1nc(NCc2cnccc2C(F)(F)F)ncc1C#N [Cmpd 6] , give its reported pIC50.
OUT: 6.10 to 7.00
